These measurements were taken from patent US9573956B2.

- target-desc: HDAC6 (Homo sapiens, UniProt Q9UBN7)
- Construct: BC069243; Cat. #50006) is full-length with N-terminal GST tag; GST (N); purchased BPS Biosciences 50006; host or cells: baculovirus infected Sf9 cells
- Sequence (Q9UBN7 whole entry): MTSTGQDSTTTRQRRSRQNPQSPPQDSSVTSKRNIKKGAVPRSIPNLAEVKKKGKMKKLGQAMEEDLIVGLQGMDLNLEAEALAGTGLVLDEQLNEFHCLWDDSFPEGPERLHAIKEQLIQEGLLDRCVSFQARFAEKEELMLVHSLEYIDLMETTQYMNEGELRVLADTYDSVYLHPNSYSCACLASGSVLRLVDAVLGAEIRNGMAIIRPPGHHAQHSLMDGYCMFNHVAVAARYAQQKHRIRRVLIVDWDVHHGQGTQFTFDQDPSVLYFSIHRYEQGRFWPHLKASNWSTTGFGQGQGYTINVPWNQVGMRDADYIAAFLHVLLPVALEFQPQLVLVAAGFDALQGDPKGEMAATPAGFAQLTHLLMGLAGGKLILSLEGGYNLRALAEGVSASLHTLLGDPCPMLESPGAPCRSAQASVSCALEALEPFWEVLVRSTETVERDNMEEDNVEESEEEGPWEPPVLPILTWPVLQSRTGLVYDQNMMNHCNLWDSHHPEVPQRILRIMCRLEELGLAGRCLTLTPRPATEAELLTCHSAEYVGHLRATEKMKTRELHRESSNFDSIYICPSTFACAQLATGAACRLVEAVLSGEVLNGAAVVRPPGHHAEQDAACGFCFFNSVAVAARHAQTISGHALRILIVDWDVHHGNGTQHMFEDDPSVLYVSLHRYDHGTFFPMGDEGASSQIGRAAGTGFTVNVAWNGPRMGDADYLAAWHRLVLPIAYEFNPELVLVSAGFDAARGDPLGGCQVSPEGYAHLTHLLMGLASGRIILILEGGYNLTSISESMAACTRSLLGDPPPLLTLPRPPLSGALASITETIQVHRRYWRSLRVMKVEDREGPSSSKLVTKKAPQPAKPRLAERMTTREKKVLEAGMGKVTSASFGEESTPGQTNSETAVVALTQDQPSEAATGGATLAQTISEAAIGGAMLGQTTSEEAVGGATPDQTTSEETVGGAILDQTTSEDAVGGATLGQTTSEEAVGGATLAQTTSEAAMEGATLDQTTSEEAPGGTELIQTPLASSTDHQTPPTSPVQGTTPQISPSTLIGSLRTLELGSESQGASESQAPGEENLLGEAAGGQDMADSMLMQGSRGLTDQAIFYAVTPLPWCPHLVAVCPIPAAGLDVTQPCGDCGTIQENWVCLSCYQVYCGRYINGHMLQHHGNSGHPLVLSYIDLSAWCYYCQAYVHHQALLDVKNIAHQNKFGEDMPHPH
- test-name: HDAC enzyme activity assay (fluorogenic substrate), HDAC6
- Format: biochemical
- assay-conditions: recombinant enzyme; read-out: HDAC6 inhibition (IC50)
pIC50: −log10 of the molar value.
Field: pIC50. Provide a value for each of the compounds that follow.

Exercise: Recorded pIC50 of CCCc1nc(C)c2c(=O)[nH]c(-c3cc(CC4CC(C(=O)NO)C4)ccc3OCC)nn12 (stereo not drawn) , please.
Key: 6.00 to 8.00

Exercise: Next compound up: CCCc1nn(C)c2c(=O)[nH]c(-c3cc(C4CC(C(=O)NO)C4)ccc3OCC)nc12 (stereo not drawn) [Example 1-84]
Key: 6.00 to 8.00

Exercise: Next compound up: CCCc1nn(C)c2c(=O)[nH]c(-c3cc(N4CCCC5(CCC(C(=O)NO)CC5)C4)ccc3OCC)nc12 (stereo not drawn)
Key: < 5.00

Exercise: Next compound up: CCCc1nn(C)c2c(=O)[nH]c(-c3cc(CC4CCC(C(=O)NO)CC4)ccc3OCC)nc12 (stereo not drawn) [Example 1-29]
Key: 6.00 to 8.00

Exercise: Next compound up: CCCc1nn(C)c2c(=O)[nH]c(-c3cc(NCCC(=O)NO)ccc3OCC)nc12
Key: < 5.00

Exercise: Next compound up: CCCc1nn(C)c2c(=O)[nH]c(-c3cc(CC4CCN(CC(=O)NO)CC4)ccc3OCC)nc12
Key: 5.00 to 6.00

Exercise: Next compound up: CCCc1nn(C)c2c(=O)[nH]c(-c3cc(CC4CCC(CC(=O)NO)CC4)ccc3OCC)nc12 (racemic)
Key: 6.00 to 8.00

Exercise: Next compound up: CCCc1nn(C)c2c(=O)[nH]c(-c3cc(-c4ccc(CC(=O)NO)cc4)ccc3OCC)nc12
Key: 6.00 to 8.00

Exercise: Next compound up: CCCc1nn(C)c2c(=O)[nH]c(-c3cccc(OC4CCN(c5ncc(C(=O)NO)cn5)CC4)c3)nc12
Key: 6.00 to 8.00

Exercise: Next compound up: CCCc1nn(C)c2c(=O)[nH]c(-c3cc(CC4CCC(C(=O)NO)CC4)ccc3OCC)nc12 (racemic) [Example 1-76]
Key: 6.00 to 8.00

Exercise: Next compound up: CCCc1nn(C)c2c(=O)[nH]c(-c3cc(Cc4ccc(CC(=O)NO)cc4)ccc3OCC)nc12
Key: 6.00 to 8.00

Exercise: Next compound up: CCCc1nn(C)c2c(=O)[nH]c(-c3cc(CC4CC4C(=O)NO)ccc3OCC)nc12 (stereo not drawn)
Key: 5.00 to 6.00

Exercise: Next compound up: CCCc1nn(C)c2c(=O)[nH]c(-c3cc(Cc4ccc(/C=C/C(=O)NO)cc4)ccc3OCC)nc12
Key: 5.00 to 6.00

Exercise: Next compound up: CCCc1nn(C)c2c(=O)[nH]c(-c3cc(CC4CCC(C(=O)NO)C4)ccc3OCC)nc12 (racemic) [Example 1-80]
Key: 6.00 to 8.00

Exercise: Next compound up: CCCc1nn(C)c2c(=O)[nH]c(-c3cc(NCC4CCN(c5ncc(C(=O)NO)cn5)CC4)ccc3OCC)nc12
Key: 6.00 to 8.00

Exercise: Next compound up: CCCc1nn(C)c2c(=O)[nH]c(-c3cc(NC4CCN(c5ncc(C(=O)NO)cn5)CC4)ccc3OCC)nc12
Key: 6.00 to 8.00

Exercise: Next compound up: CCCc1nn(C)c2c(=O)[nH]c(-c3cc(C4=CCC(C(=O)NO)CC4)ccc3OCC)nc12 (stereo not drawn)
Key: 6.00 to 8.00

Exercise: Next compound up: CCCc1nn(C)c2c(=O)[nH]c(-c3cc(-c4ccc(C(=O)NO)s4)ccc3OCC)nc12
Key: 6.00 to 8.00

Exercise: Next compound up: CCCc1nn(C)c2c(=O)[nH]c(-c3cc(S(=O)(=O)NC4CCN(c5ncc(C(=O)NO)cn5)CC4)ccc3OCC)nc12
Key: 6.00 to 8.00

Exercise: Next compound up: CC1CN(CC2CC(C(=O)NO)C2)CC1c1nc2c(cnn2C2CCOCC2)c(=O)[nH]1 (racemic)
Key: 5.00 to 6.00

Exercise: Next compound up: CCCc1nn(C)c2c(=O)[nH]c(-c3cc(CC4CCC(C(=O)NO)C4)ccc3OCC)nc12 (stereo not drawn) [Example 1-83]
Key: 6.00 to 8.00

Exercise: Next compound up: CCCc1nn(C)c2c(=O)[nH]c(-c3cc(C(=O)c4ccc(C(=O)NO)s4)ccc3OCC)nc12
Key: 6.00 to 8.00

Exercise: Next compound up: CCCc1nn(C)c2c(=O)[nH]c(-c3cc(CC4CC(C(=O)NO)C4)ccc3OCC)nc12 (stereo not drawn) [Example 1-63]
Key: 6.00 to 8.00

Exercise: Next compound up: CCCc1nn(C)c2c(=O)[nH]c(-c3cc(OC4CCC(C(=O)NO)CC4)ccc3OCC)nc12 (stereo not drawn)
Key: 5.00 to 6.00

Exercise: Next compound up: CCCc1nn(C)c2c(=O)[nH]c(-c3cc(C4CCC(CC(=O)NO)CC4)ccc3OCC)nc12 (stereo not drawn)
Key: 5.00 to 6.00

Exercise: Next compound up: CCCc1nn(C)c2c(=O)[nH]c(-c3cc(-c4ccc(C(=O)NO)o4)ccc3OCC)nc12
Key: 5.00 to 6.00

Exercise: Next compound up: CCCc1nn(C)c2c(=O)[nH]c(-c3cc(C4CCC(C(=O)NO)CC4)ccc3OCC)nc12 (stereo not drawn) [Example 1-40]
Key: 6.00 to 8.00

* * *

- target-desc: HDAC2 (Homo sapiens)
- Construct: NM_001527; Cat. #50002) is full-length with C-terminal his tag; His (C); purchased BPS Biosciences 50002; host or cells: baculovirus infected Sf9 cells
- Sequence (Q92769 whole entry): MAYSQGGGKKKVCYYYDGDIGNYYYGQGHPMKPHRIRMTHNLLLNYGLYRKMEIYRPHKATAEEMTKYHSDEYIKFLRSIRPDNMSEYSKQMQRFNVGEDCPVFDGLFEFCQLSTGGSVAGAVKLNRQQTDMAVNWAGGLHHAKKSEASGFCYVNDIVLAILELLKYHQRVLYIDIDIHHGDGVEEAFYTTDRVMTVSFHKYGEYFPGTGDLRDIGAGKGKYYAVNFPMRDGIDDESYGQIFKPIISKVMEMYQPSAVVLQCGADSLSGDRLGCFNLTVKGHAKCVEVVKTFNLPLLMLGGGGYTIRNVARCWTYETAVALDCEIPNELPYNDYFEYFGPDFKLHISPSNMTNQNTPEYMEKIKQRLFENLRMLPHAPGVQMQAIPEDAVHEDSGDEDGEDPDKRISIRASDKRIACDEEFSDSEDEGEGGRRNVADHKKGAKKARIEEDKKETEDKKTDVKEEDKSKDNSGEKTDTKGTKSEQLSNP
- test-name: HDAC enzyme activity assay (fluorogenic substrate), HDAC2
- Assay type: biochemical
- assay-conditions: recombinant enzyme; read-out: HDAC2 inhibition (IC50)
observable: IC50

Exercise: Give recorded IC50 with HDAC2 (Homo sapiens) for the following compound: CCCc1nn(C)c2c(=O)[nH]c(-c3cc(N4CCC5(CCN(c6ncc(C(=O)NO)cn6)CC5)C4)ccc3OCC)nc12 [Example 1-69]
Key: 1000 to 10000 nM

Exercise: Next compound up: CCCc1nn(C)c2c(=O)[nH]c(-c3cc(NCCC(=O)NO)ccc3OCC)nc12 [Example 1-33]
Key: > 10000 nM

Exercise: Next compound up: CCCc1nn(C)c2c(=O)[nH]c(-c3cc(Cc4ccc(C(=O)NO)cc4F)ccc3OCC)nc12 [Example 1-68]
Key: > 10000 nM

Exercise: Next compound up: CCCc1nn(C)c2c(=O)[nH]c(-c3cc(CC4CC(C(=O)NO)C4)ccc3OCC)nc12 (centres unmarked) [Example 1-62]
Key: 10 to 1000 nM

Exercise: Next compound up: CCCc1nn(C)c2c(=O)[nH]c(-c3cc(NCC4CCN(c5ncc(C(=O)NO)cn5)CC4)ccc3OCC)nc12 [Example 1-23]
Key: 10 to 1000 nM

* * *

- target-desc: PDE5A (Homo sapiens, UniProt O76074)
- Construct: they are full-length with N-terminal GST tag; GST (N); purchased BPS Biosciences 60050; host or cells: baculovirus infected Sf9 cells
- test-name: PDE enzyme activity assay (HTRF cGMP), PDE5A
- Type: biochemical
- assay-conditions: recombinant enzyme; read-out: PDE5A1 inhibition (IC50)
observable: IC50

Exercise: Give recorded IC50 with PDE5A (Homo sapiens, UniProt O76074) for the following molecule: CCCc1nn(C)c2c(=O)[nH]c(-c3cc(Cc4ccc(C(=O)NO)cc4)ccc3OCC)nc12
Key: 10 to 1000 nM

Exercise: Next molecule up: CCCc1nn(C)c2c(=O)[nH]c(-c3cc(-c4ccc(C(=O)NO)cc4)ccc3OCC)nc12
Key: < 10 nM

Exercise: Next molecule up: CCCc1nn(C)c2c(=O)[nH]c(-c3cc(C4=CCC(C(=O)NO)CC4)ccc3OCC)nc12 (centres unmarked)
Key: 10 to 1000 nM

Exercise: Next molecule up: CCCc1nn(C)c2c(=O)[nH]c(-c3cc(Cc4ccc(C(=O)NO)cc4F)ccc3OCC)nc12
Key: 10 to 1000 nM

Exercise: Next molecule up: CCCc1nc(C)c2c(=O)[nH]c(-c3cc(S(=O)(=O)N4CCN(CCCC(=O)NO)CC4)ccc3OCC)nn12
Key: < 10 nM

Exercise: Next molecule up: CCCc1nn(C)c2c(=O)[nH]c(-c3cc(CC4CCN(C(=O)NO)CC4)ccc3OCC)nc12
Key: 10 to 1000 nM

Exercise: Next molecule up: CCCc1nn(C)c2c(=O)[nH]c(-c3cc(S(=O)(=O)Nc4ccc(/C=C/C(=O)NO)cc4)ccc3OCC)nc12
Key: < 10 nM

Exercise: Next molecule up: CCCc1nc(C)c2c(=O)[nH]c(-c3cc(C4CCC(C(=O)NO)CC4)ccc3OCC)nn12 (centres unmarked) [Example 2-13]
Key: < 10 nM

Exercise: Next molecule up: CCCc1nn(C)c2c(=O)[nH]c(-c3cc(CC4CC4C(=O)NO)ccc3OCC)nc12 (centres unmarked)
Key: 10 to 1000 nM

Exercise: Next molecule up: CCCc1nn(C)c2c(=O)[nH]c(-c3cc(NCCC(=O)NO)ccc3OCC)nc12
Key: 10 to 1000 nM

Exercise: Next molecule up: CCCc1nn(C)c2c(=O)[nH]c(-c3cc(CC4CCN(c5ncc(C(=O)NO)cn5)CC4)ccc3OCC)nc12
Key: < 10 nM

Exercise: Next molecule up: CCCc1nn(C)c2c(=O)[nH]c(-c3cc(-c4ccc(CC(=O)NO)cc4)ccc3OCC)nc12
Key: 10 to 1000 nM

Exercise: Next molecule up: CCCc1nc(C)c2c(=O)[nH]c(-c3cc(Cc4ccc(/C=C/C(=O)NO)cc4)ccc3OCC)nn12
Key: < 10 nM

Exercise: Next molecule up: CCCc1nn(C)c2c(=O)[nH]c(-c3cc(Cc4ccc(C(=O)NO)cc4OC)ccc3OCC)nc12
Key: 10 to 1000 nM

Exercise: Next molecule up: CCCc1nn(C)c2c(=O)[nH]c(-c3cc(Cc4ccc(C(=O)NO)o4)ccc3OCC)nc12
Key: < 10 nM

Exercise: Next molecule up: COc1ccc(C(=O)Nc2c(Cl)cncc2Cl)cc1OC1CCCC1 [Piclamilast, reference compound]
Key: 1000 to 10000 nM

Exercise: Next molecule up: O=C(NO)c1cnc(N2CCC(CN3CC(=O)N4[C@H](c5ccc6c(c5)OCO6)c5[nH]c6ccccc6c5C[C@@H]4C3=O)CC2)nc1
Key: 10 to 1000 nM

Exercise: Next molecule up: CCCc1nc(C)c2c(=O)[nH]c(-c3cc(CC4CC(C(=O)NO)C4)ccc3OCC)nn12 (centres unmarked)
Key: < 10 nM

Exercise: Next molecule up: CCCc1nn(C)c2c(=O)[nH]c(-c3cc(N4CCC5(CCC(C(=O)NO)C5)CC4)ccc3OCC)nc12 (centres unmarked)
Key: 10 to 1000 nM

Exercise: Next molecule up: C[C@@H]1CN(Cc2ncccn2)C[C@H]1c1nc2c(cnn2C2CCOCC2)c(=O)[nH]1 [PF-4447943, reference compound]
Key: 1000 to 10000 nM
